Tested on: mice falling off the inverted screen
Assay Overview: Mouse Activity and Screen Test Procedure (MAST): screen test (ST)
Assay type: in vivo, Swiss-Webster male mice
Test Parameters: 30 mg/kg intraperitoneally, one hour postinjection; percent of mice falling off the screen
Value Type: Screen Test Failure (%)
Expressed in %, but write only the number.

Recorded Screen Test Failure, per entry:
So, COc1cc(OC)c2c(c1)OC(C)(C)CC2Nc1ncnc2c1ncn2[C@@H]1O[C@H](CO)[C@@H](O)[C@H]1O (some centres unmarked) ? Its Screen Test Failure was 0

So, Cc1ccc2c(c1C)OC(C)C(Nc1ncnc3c1ncn3[C@@H]1O[C@H](CO)[C@@H](O)[C@H]1O)C2 (some centres unmarked) ? Its Screen Test Failure was 22

So, OC[C@H]1O[C@@H](n2cnc3c(NC4CSc5ccccc5C4)ncnc32)[C@H](O)[C@@H]1O (some centres unmarked) ? Its Screen Test Failure was 56

So, C[C@H]1Oc2ccccc2C[C@@H]1Nc1ncnc2c1ncn2[C@@H]1O[C@H](CO)[C@@H](O)[C@H]1O (relative stereo) ? Its Screen Test Failure was 11

So, Cc1ccc2c(c1C)OCC(Nc1ncnc3c1ncn3[C@@H]1O[C@H](CO)[C@@H](O)[C@H]1O)C2 (some centres unmarked) ? Its Screen Test Failure was 22

Continuing:
So, COc1ccc2c(c1)OCC(Nc1ncnc3c1ncn3[C@@H]1O[C@H](CO)[C@@H](O)[C@H]1O)C2 (some centres unmarked) ? Its Screen Test Failure was 22

So, OC[C@H]1O[C@@H](n2cnc3c(NC4COc5c(Cl)cccc5C4)ncnc32)[C@H](O)[C@@H]1O (some centres unmarked) ? Its Screen Test Failure was 55

So, O=S1(=O)CCC(Nc2ncnc3c2ncn3[C@@H]2O[C@H](CO)[C@@H](O)[C@H]2O)c2ccccc21 (some centres unmarked) ? Its Screen Test Failure was 55
